For each record, write down the corresponding MIC.
Test system: Mab ATCC 19977
method.summary: MIC testing against Mab ATCC 19977, single agent and combinations
Assay type: cell-based, Mycobacterium abscessus
reported.conditions: Mycobacteroides abscessus, ATCC19977, 48 h; alone (single agent); read-out: MIC
Answers are plain numbers, in µg/mL.

                                   molecule     test_system  measured_result
0  CC1=C[C@@H]2CN(C(=O)N2OS(=O)(=O)O)[C@@H]1C(N)=O [DUR, durlobactam, reference compound]  Mab ATCC 19977                8
1  CC1(C)S[C@@H]2[C@H](NC(=O)[C@H](N)c3ccc(O)cc3)C(=O)N2[C@H]1C(=O)O [AMX, amoxicillin, reference compound]  Mab ATCC 19977              128

Note: attention shifts to another entry.
// MIC lookup, molecule = CC[C@]12CC(S[C@@H]3CN[C@H](C(=O)N(C)C)C3)=C(C(=O)O)N1C(=O)[C@@H]2[C@@H](C)O , result: 32

----------
method.summary: Thermal stability in 7H9 broth at 30°C
reported.conditions: buffer
observation.type: half-life (h)
One number for each entry, in h.

Please go through the list and note half-life for each compound.
1. C[C@@H](O)[C@H]1C(=O)N2C(C(=O)O)=C(S[C@@H]3CN[C@H](C(=O)N(C)C)C3)C[C@]12C
2. CC[C@]12CC(S[C@@H]3CN[C@H](C(=O)N(C)C)C3)=C(C(=O)O)N1C(=O)[C@@H]2[C@@H](C)O

A)
[50, 66]

----------
Give Ki for every item shown.
test.system: LDT2 (Mycobacteroides abscessus)
Sequence (B1MMQ4 entry or part of it): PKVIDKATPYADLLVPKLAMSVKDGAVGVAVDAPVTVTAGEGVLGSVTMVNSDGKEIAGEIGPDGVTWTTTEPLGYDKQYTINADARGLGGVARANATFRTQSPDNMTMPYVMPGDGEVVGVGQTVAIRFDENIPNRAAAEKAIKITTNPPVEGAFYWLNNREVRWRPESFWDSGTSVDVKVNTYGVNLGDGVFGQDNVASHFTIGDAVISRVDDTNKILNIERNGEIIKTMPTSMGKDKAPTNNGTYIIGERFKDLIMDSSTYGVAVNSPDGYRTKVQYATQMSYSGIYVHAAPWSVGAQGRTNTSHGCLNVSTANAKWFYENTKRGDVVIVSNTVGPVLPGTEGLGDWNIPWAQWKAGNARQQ
Answers are plain numbers, in nM.

See these solved cases before continuing.
In [3]: df
Out[3]:
                               smiles_entry                       test_system  observation_type  measured_result
0  C[C@@H](O)[C@H]1C(=O)N2C(C(=O)O)=C(S[C@@H]3CN[C@H](C(=O)N(C)C)C3)C[C@]12C  LDT2 (Mycobacteroides abscessus)                Ki              130
1  C[C@@H](O)[C@H]1C(=O)N2C(C(=O)O)=C(S[C@@H]3CN[C@H](C(=O)N(C)C)C3)[C@H](C)[C@H]12  LDT2 (Mycobacteroides abscessus)                Ki             31.3

Then there is this compound:
Tested on LDT2 (Mycobacteroides abscessus), the item CC[C@]12CC(S[C@@H]3CN[C@H](C(=O)N(C)C)C3)=C(C(=O)O)N1C(=O)[C@@H]2[C@@H](C)O showed Ki equal to 166

Data credit: paper PMC12326981
